Data origin, for the record: BigSolDB 2.1

details: in n-butyl acetate, 293.15 K
metricName: solubility (mole fraction)
Numbers only.

INPUT: Please report the recorded solubility (mole fraction) for CC1(C)[C@H](C(=O)O)[C@@H]1/C=C(\Cl)C(F)(F)F (racemic) .
OUTPUT: 0.119

* * *

settings: in methyl acetate, 313.15 K
metricName: solubility (mole fraction)
One number for each entry.

INPUT: Please report the recorded solubility (mole fraction) for CC1(C)[C@H](C(=O)O)[C@@H]1/C=C(\Cl)C(F)(F)F (racemic) .
OUTPUT: 0.171

* * *

conditions: in cyclohexane, 298.15 K
metricName: solubility (mole fraction)
Numbers only.

INPUT: Please report the recorded solubility (mole fraction) for CC1(C)[C@H](C(=O)O)[C@@H]1/C=C(\Cl)C(F)(F)F (racemic) .
OUTPUT: 0.00592

* * *

settings: in ethanol, 313.15 K
metricName: solubility (mole fraction)
Answers are plain numbers.

INPUT: Please report the recorded solubility (mole fraction) for CC1(C)[C@H](C(=O)O)[C@@H]1/C=C(\Cl)C(F)(F)F (racemic) .
OUTPUT: 0.168

* * *

details: in ethanol, 298.15 K
metricName: solubility (mole fraction)

INPUT: Please report the recorded solubility (mole fraction) for CC1(C)[C@H](C(=O)O)[C@@H]1/C=C(\Cl)C(F)(F)F (racemic) .
OUTPUT: 0.106

* * *

details: in ethyl acetate, 293.15 K
metricName: solubility (mole fraction)
Answers are plain numbers.

INPUT: Please report the recorded solubility (mole fraction) for CC1(C)[C@H](C(=O)O)[C@@H]1/C=C(\Cl)C(F)(F)F (racemic) .
OUTPUT: 0.109

* * *

settings: in tert-butanol, 298.15 K
metricName: solubility (mole fraction)
Numbers only.

INPUT: Please report the recorded solubility (mole fraction) for CC1(C)[C@H](C(=O)O)[C@@H]1/C=C(\Cl)C(F)(F)F (racemic) .
OUTPUT: 0.197

* * *

conditions: in sec-butanol, 283.15 K
metricName: solubility (mole fraction)
Give bare numbers.

INPUT: Please report the recorded solubility (mole fraction) for CC1(C)[C@H](C(=O)O)[C@@H]1/C=C(\Cl)C(F)(F)F (racemic) .
OUTPUT: 0.0987

* * *

conditions: in sec-butanol, 298.15 K
metricName: solubility (mole fraction)
Numbers only.

INPUT: Please report the recorded solubility (mole fraction) for CC1(C)[C@H](C(=O)O)[C@@H]1/C=C(\Cl)C(F)(F)F (racemic) .
OUTPUT: 0.161

* * *

conditions: in cyclohexane, 288.15 K
metricName: solubility (mole fraction)
Answers are plain numbers.

INPUT: Please report the recorded solubility (mole fraction) for CC1(C)[C@H](C(=O)O)[C@@H]1/C=C(\Cl)C(F)(F)F (racemic) .
OUTPUT: 0.00304

* * *

conditions: in cyclohexane, 283.15 K
metricName: solubility (mole fraction)
Answers are plain numbers.

INPUT: Please report the recorded solubility (mole fraction) for CC1(C)[C@H](C(=O)O)[C@@H]1/C=C(\Cl)C(F)(F)F (racemic) .
OUTPUT: 0.00261

* * *

conditions: in ethyl acetate, 303.15 K
metricName: solubility (mole fraction)

INPUT: Please report the recorded solubility (mole fraction) for CC1(C)[C@H](C(=O)O)[C@@H]1/C=C(\Cl)C(F)(F)F (racemic) .
OUTPUT: 0.141

* * *

details: in isobutanol, 323.15 K
metricName: solubility (mole fraction)
One number for each entry.

INPUT: Please report the recorded solubility (mole fraction) for CC1(C)[C@H](C(=O)O)[C@@H]1/C=C(\Cl)C(F)(F)F (racemic) .
OUTPUT: 0.233
